Value source: patent US9073855B2

Target Of Assay: GST-Bcl-XL (Homo sapiens)
Sequence (Q07817 whole entry): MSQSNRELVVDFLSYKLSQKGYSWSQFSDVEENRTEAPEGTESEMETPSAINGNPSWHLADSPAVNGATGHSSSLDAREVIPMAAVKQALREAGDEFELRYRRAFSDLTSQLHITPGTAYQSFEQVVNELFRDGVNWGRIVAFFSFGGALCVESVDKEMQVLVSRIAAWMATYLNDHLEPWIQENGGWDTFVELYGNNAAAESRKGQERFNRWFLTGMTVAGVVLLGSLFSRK
Experiment Notes: TR-FRET binding assay, GST-Bcl-XL with F-Bak peptide probe
Condition Set: TR-FRET Binding Affinity, GST-Bcl-XL, F-Bak peptide probe
Assay Metric: pKi
// returns pKi (minus log10 of molar concentration), number only

>  <Compound>
COCCN1CCC(Nc2ccc(S(=O)(=O)NC(=O)c3ccc(N4CCN(CC5=C(c6ccc(Cl)cc6)CC(C)(C)CC5)CC4)cc3Oc3cccc4[nH]ccc34)cc2[N+](=O)[O-])CC1 [Example 194]

>  <Measured Number>
7.49

$$$$
>  <Compound>
CC1(C)CCC(CN2CCN(c3ccc(C(=O)NS(=O)(=O)c4ccc(OC[C@@H]5COCCO5)c([N+](=O)[O-])c4)c(Oc4ccc5[nH]ccc5c4)c3)CC2)=C(c2ccc(Cl)cc2)C1 [Example 347]

>  <Measured Number>
6.51

$$$$

// pKi lookup, key: CC1(C)CCC(CN2CCN(c3ccc(C(=O)NS(=O)(=O)c4cnc(OCC5(F)CCOCC5)c(Cl)c4)c(Oc4cccc5[nH]ncc45)c3)CC2)=C(c2ccc(Cl)cc2)C1 [Example 404] 7.52

Look at this compound and give its reported pKi. CC1(C)CCC(CN2CCN(c3ccc(C(=O)NS(=O)(=O)c4cnc(OCC5CCOCC5)c(C#N)c4)c(Oc4cccc5[nH]ccc45)c3)CC2)=C(c2ccc(Cl)cc2)C1 [Example 386] 6.93
